system: MOLT-4 leukemia; assay: NCI tumour cell line growth inhibition, 48 h
I'd be grateful if you could share measured GI50 for these entries.

Record O=C(OCc1ccc2ccccc2n1)c1cn(C2CC2)c2cc(N3CCN(Cc4ccc5ccccc5n4)CC3)c(F)cc2c1=O ; system MOLT-4 leukemia; GI50 = > 100000 nM

Record COc1ccc(-c2cc(-c3ccc(C)cc3)nc3nc(=S)[nH]c(N)c23)cc1 ; system MOLT-4 leukemia; GI50 = 35600 nM

Record COc1cc2nc(N3CCCC3)nc(NCCc3ccccc3)c2cc1OC ; system MOLT-4 leukemia; GI50 = 2430 nM

Record CCCCCCCCCCCCCCCCCC[n+]1ccc2c(C)c3c(c(C)c2c1)c1cc(O)ccc1n3CC ; system MOLT-4 leukemia; GI50 = 2530 nM

Record CCCCCCCCCCCCCCCCCC1=NCCN1CCOC1=C(Cl)C(=O)c2ccccc2C1=O ; system MOLT-4 leukemia; GI50 = 747 nM

Record COc1ccc(-c2nc(Nc3cc(C)[nH]n3)c3ccccc3n2)cc1 ; system MOLT-4 leukemia; GI50 = 3670 nM

Record COc1ccc(-c2[nH]c3ccccc3c2-c2ccc(OC)cc2)cc1 ; system MOLT-4 leukemia; GI50 = 2680 nM

Record COc1cccc(OC(=O)c2ccc(C(F)(F)F)nc2Nc2cc(Cl)ccc2C)c1 ; system MOLT-4 leukemia; GI50 = 3110 nM

Record C[C@@H]1CN(Cc2ccc(F)cc2)[C@@H](C)CN1C(=O)c1cc2c(C(=O)C(=O)N(C)C)cn(C)c2cc1Cl ; system MOLT-4 leukemia; GI50 = 17900 nM

Record CN=c1ccc2nc3ccc(N)cc3sc-2c1 ; system MOLT-4 leukemia; GI50 = 1770 nM

Record O=C1OCC2=C1C(c1ccc(Cl)c(Cl)c1)c1cc3c(cc1N2CCO)OCCO3 (configuration not stated) ; system MOLT-4 leukemia; GI50 = 456 nM

Record COc1ccc2cc1Oc1ccc(cc1)C[C@H]1c3c(cc4c(c3Oc3cc5c(cc3OC)CCN(C)[C@@H]5C2)OCO4)CCN1C ; system MOLT-4 leukemia; GI50 = 3920 nM
